Task for the reader: assign each of the following molecules its reported %Inh.
Test system: CSNK1E;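 note: KINOMEscan kinase panel screen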
setup.conditions: concentration: 1 μM,replicates: in singlicate; n = 1
Hi! Could you send only the number? It should be in %, unit omitted.

## Task Which measured %Inh value corresponds to CC(=O)Nc1ccc(-c2cc3ncnc(SCC(=O)O)c3s2)cc1 ?
## Result 0

## Task Cool, now CC(C(=O)NC1CCN(c2ccnc(Nc3ccc(F)cc3)n2)C1)c1ccc(Cl)cc1 (stereo not drawn)
## Result 3

## Task Cool, now FC(F)(F)c1cc(Br)cc(Nc2nccc(-c3cnn4ncccc34)n2)c1
## Result 75

## Task Cool, now C[C@@H]1CCN(C(=O)N2CCCC2)C[C@@H]1N(C)c1ncnc2[nH]ccc12
## Result 13

## Task Cool, now O=C(Nc1n[nH]c2cc(-c3ccco3)ccc12)C1CC1
## Result 0

## Task Cool, now Cc1ccn2nc(-c3ccc(F)cc3)c(-c3ccncc3)c2c1.Cl
## Result 99.6

## Task Cool, now COc1cc2ncn(-c3cc(OCC4CCCCC4)c(C(N)=O)s3)c2cc1OC
## Result 0

## Task Cool, now Cn1cc(-c2cccc3c(N)c(C(N)=O)nnc23)cn1
## Result 25

## Task Cool, now O=C(Nc1ccccc1)c1cccc(Oc2ccc3nccn3n2)c1
## Result 0
